- Test system: Pseudomonas aeruginosa
- EXPERIMENTAL_DETAILS: Minimum inhibitory concentration against Pseudomonas aeruginosa 9027 was determined by agar dilution method using Mueller-Hinton
- Assay type: functional
PROPERTY_MEASURED: MIC (µg/mL)

[[record]]
compound = "C[C@@H](O)[C@H]1C(=O)N2C(C(=O)O)=C(S[C@@H]3CN[C@H](C(=O)N(C)C)C3)[C@H](C)[C@H]12"
property_measured = "MIC"
unit_descriptor = "µg/mL"
recorded_result = 0.195

[[record]]
compound = "C[C@@H](O)[C@H]1C(=O)N2C(C(=O)O)=C(S[C@@H]3CN[C@H](/C=C\\c4cnoc4)C3)[C@H](C)[C@H]12"
property_measured = "MIC"
unit_descriptor = "µg/mL"
recorded_result = 25

[[record]]
compound = "C[C@@H](O)[C@H]1C(=O)N2C(C(=O)O)=C(S[C@@H]3CN[C@H](/C=C\\c4cc(CO)no4)C3)[C@H](C)[C@H]12"
property_measured = "MIC"
unit_descriptor = "µg/mL"
recorded_result = 3.12

[[record]]
compound = "C[C@@H](O)[C@H]1C(=O)N2C(C(=O)O)=C(S[C@@H]3CN[C@H](/C=C/c4cc(Cl)no4)C3)[C@H](C)[C@H]12"
property_measured = "MIC"
unit_descriptor = "µg/mL"
recorded_result = 0.781

[[record]]
compound = "COC(=O)c1cc(/C=C/[C@@H]2C[C@H](SC3=C(C(=O)O)N4C(=O)[C@H]([C@@H](C)O)[C@H]4[C@H]3C)CN2)on1"
property_measured = "MIC"
unit_descriptor = "µg/mL"
recorded_result = 0.098

[[record]]
compound = "COc1cc(/C=C/[C@@H]2C[C@H](SC3=C(C(=O)O)N4C(=O)[C@H]([C@@H](C)O)[C@H]4[C@H]3C)CN2)on1"
property_measured = "MIC"
unit_descriptor = "µg/mL"
recorded_result = 12.5

[[record]]
compound = "C[C@@H](O)[C@H]1C(=O)N2C(C(=O)O)=C(S[C@@H]3CN[C@H](/C=C/c4cc(CO)no4)C3)[C@H](C)[C@H]12"
property_measured = "MIC"
unit_descriptor = "µg/mL"
recorded_result = 0.195

[[record]]
compound = "COC(=O)c1cc(/C=C\\[C@@H]2C[C@H](SC3=C(C(=O)O)N4C(=O)[C@H]([C@@H](C)O)[C@H]4[C@H]3C)CN2)on1"
property_measured = "MIC"
unit_descriptor = "µg/mL"
recorded_result = 0.098

[[record]]
compound = "C[C@@H](O)[C@H]1C(=O)N2C(C(=O)O)=C(SCCNC=N)C[C@H]12 [IMIPENEM ANHYDROUS]"
property_measured = "MIC"
unit_descriptor = "µg/mL"
recorded_result = 0.781

[[record]]
compound = "C[C@@H](O)[C@H]1C(=O)N2C(C(=O)O)=C(S[C@@H]3CN[C@H](/C=C/c4ccno4)C3)[C@H](C)[C@H]12"
property_measured = "MIC"
unit_descriptor = "µg/mL"
recorded_result = 0.195

[[record]]
compound = "C[C@@H](O)[C@H]1C(=O)N2C(C(=O)O)=C(S[C@@H]3CN[C@H](/C=C/c4ccon4)C3)[C@H](C)[C@H]12"
property_measured = "MIC"
unit_descriptor = "µg/mL"
recorded_result = 3.12

